Sourced from ChEMBL document CHEMBL5385882

# run_description: Clearance in Balb/c mouse at 10 mg/kg, ip measured upto24 hrs by LC/MS/MS analysis
# Type: ADME, organism-based
# run_parameters: in vivo, time 24 hrs
observed_property: CL/F (mL/min/kg)
Dear colleague, please return just the value in mL/min/kg, with no unit written.

Prompt: Which measured CL/F value corresponds to CN1CCN(c2ccc(C(=O)Nc3cnc4[nH]cc(-c5cncc(F)c5)c4c3)cc2)CC1 ?
Completion: 59.7

---

# assay_system: Dual specificity tyrosine-phosphorylation-regulated kinase 1A (Homo sapiens)
# run_description: Inhibition of human full length recombinant DYRK1A assessed as remaining activity using RRRFRPASPLRGPP as substrate by [gamma-32P]ATP binding based scintillation counting based analysis
observed_property: pIC50
pIC50 here: minus log base 10 of the concentration, concentration in moles per litre.

Prompt: Form field: pIC50 recorded for O=C(Nc1cnc2[nH]cc(-c3cccnc3)c2c1)c1ccc(C(F)(F)F)c(F)c1 with Dual specificity tyrosine-phosphorylation-regulated kinase 1A (Homo sapiens) (enter value)
Completion: 5.44

Prompt: Form field: pIC50 recorded for COc1cncc(-c2c[nH]c3ncc(NC(=O)c4ccc(Cl)cc4OC)cc23)c1 with Dual specificity tyrosine-phosphorylation-regulated kinase 1A (Homo sapiens) (enter value)
Completion: 5.46

Prompt: Form field: pIC50 recorded for CN1CCN(c2ccc(CNc3cnc4[nH]cc(-c5cccnc5)c4c3)cc2)CC1 with Dual specificity tyrosine-phosphorylation-regulated kinase 1A (Homo sapiens) (enter value)
Completion: 5.76

Prompt: Form field: pIC50 recorded for O=C(Nc1cc(C(F)(F)F)cc(C(F)(F)F)c1)Nc1cnc2[nH]cc(-c3cncc(F)c3)c2c1 with Dual specificity tyrosine-phosphorylation-regulated kinase 1A (Homo sapiens) (enter value)
Completion: 5.25

Prompt: Form field: pIC50 recorded for COc1cncc(-c2c[nH]c3ncc(NCc4cccc(F)c4)cc23)c1 with Dual specificity tyrosine-phosphorylation-regulated kinase 1A (Homo sapiens) (enter value)
Completion: 5.69

Prompt: Form field: pIC50 recorded for Fc1cc(F)cc(CNc2cnc3[nH]cc(-c4cccnc4)c3c2)c1 with Dual specificity tyrosine-phosphorylation-regulated kinase 1A (Homo sapiens) (enter value)
Completion: 6.54

Prompt: Form field: pIC50 recorded for COc1cncc(-c2c[nH]c3ncc(NCc4cc(F)cc(F)c4)cc23)c1 with Dual specificity tyrosine-phosphorylation-regulated kinase 1A (Homo sapiens) (enter value)
Completion: 5.88

Prompt: Form field: pIC50 recorded for CC(C)c1cccc(CNc2cnc3[nH]cc(-c4cccnc4)c3c2)c1 with Dual specificity tyrosine-phosphorylation-regulated kinase 1A (Homo sapiens) (enter value)
Completion: 5.62

Prompt: Form field: pIC50 recorded for Nc1ccc(-c2c[nH]c3ncc(NCc4cc(F)cc(F)c4)cc23)cc1 with Dual specificity tyrosine-phosphorylation-regulated kinase 1A (Homo sapiens) (enter value)
Completion: 6.25

Prompt: Form field: pIC50 recorded for c1cncc(-c2c[nH]c3ncc(NCc4ccc(N5CCOCC5)cc4)cc23)c1 with Dual specificity tyrosine-phosphorylation-regulated kinase 1A (Homo sapiens) (enter value)
Completion: 5.77

Prompt: Form field: pIC50 recorded for COc1cncc(-c2c[nH]c3ncc(NCc4ccc(F)cc4)cc23)c1 with Dual specificity tyrosine-phosphorylation-regulated kinase 1A (Homo sapiens) (enter value)
Completion: 5.63

Prompt: Form field: pIC50 recorded for COc1cncc(-c2c[nH]c3ncc(NCc4ccc(N5CCOCC5)cc4)cc23)c1 with Dual specificity tyrosine-phosphorylation-regulated kinase 1A (Homo sapiens) (enter value)
Completion: 5.72

Prompt: Form field: pIC50 recorded for O=C(Nc1cnc2[nH]cc(-c3cncc(F)c3)c2c1)c1ccco1 with Dual specificity tyrosine-phosphorylation-regulated kinase 1A (Homo sapiens) (enter value)
Completion: 5.52

Prompt: Form field: pIC50 recorded for O=S(=O)(Nc1cnc2[nH]cc(-c3cncc(F)c3)c2c1)c1ccc(F)cc1 with Dual specificity tyrosine-phosphorylation-regulated kinase 1A (Homo sapiens) (enter value)
Completion: 5.44

Prompt: Form field: pIC50 recorded for COc1cncc(-c2c[nH]c3ncc(NC(=O)c4ccc(F)cc4)cc23)c1 with Dual specificity tyrosine-phosphorylation-regulated kinase 1A (Homo sapiens) (enter value)
Completion: 5.69

Prompt: Form field: pIC50 recorded for COc1ccc(-c2c[nH]c3ncc(NCc4cc(F)cc(F)c4)cc23)cc1 with Dual specificity tyrosine-phosphorylation-regulated kinase 1A (Homo sapiens) (enter value)
Completion: 7.01

Prompt: Form field: pIC50 recorded for Fc1cccc(/C=N/c2cnc3[nH]cc(-c4cncc(F)c4)c3c2)c1 with Dual specificity tyrosine-phosphorylation-regulated kinase 1A (Homo sapiens) (enter value)
Completion: 6.19

Prompt: Form field: pIC50 recorded for Nc1ncc(-c2c[nH]c3ncc(NCc4cc(F)cc(F)c4)cc23)cn1 with Dual specificity tyrosine-phosphorylation-regulated kinase 1A (Homo sapiens) (enter value)
Completion: 6.23

Prompt: Form field: pIC50 recorded for Fc1cc(F)cc(CNc2cnc3[nH]cc(C4=CCCCC4)c3c2)c1 with Dual specificity tyrosine-phosphorylation-regulated kinase 1A (Homo sapiens) (enter value)
Completion: 5.61

Prompt: Form field: pIC50 recorded for CN1CCN(c2ccc(C(=O)Nc3cnc4[nH]cc(-c5cncc(F)c5)c4c3)cc2)CC1 with Dual specificity tyrosine-phosphorylation-regulated kinase 1A (Homo sapiens) (enter value)
Completion: 5.82

Prompt: Form field: pIC50 recorded for CC(C)(C)c1cccc(CNc2cnc3[nH]cc(-c4cccnc4)c3c2)c1 with Dual specificity tyrosine-phosphorylation-regulated kinase 1A (Homo sapiens) (enter value)
Completion: 6.01
